EXPERIMENTAL_PROTOCOL: melting temperature; fluorescence melt of hairpins on a sequencing array, two-state fit, raised by 9.35 °C to match UV melts
REPORTED_CONDITIONS: sodium 0.088 M
Quick reference for Tm among some sequences
MEASUREMENT_KIND: Tm (°C)

GACGAGGGAAACCCCGTC ((((.((....)).)))): 51
GGATTTCGAAAGAATTCC (((.(((....))).))): 42
GCGTTCCGACGC ((((....)))): 58
GGCCGCCCGAAAGGGGCC (((..(((....)))))): 62
GATCCCATAAGGGATC ((((((....)))))): 63.9
GGCGCCACGAAAGTGGCC (((..(((....)))))): 48.8
GATCTTATATAAGATC ((((((....)))))): 44.9
GATTGCGAAAGCATTATC ((((((....)))..))): 26.6
GCGCCCGAAAGGGTCCGC ((((((....)))..))): 56.2
CGCGGAACGTCCGCG ((((((...)))))): 60.5
GTTCTCGGAAACGAGAAC (((((((....))))))): 65.7
GCGTCCGGAAACGAACGC ((((.((....)).)))): 54.7
GAATCACGAAAGTGCTTC (((.(((....))).))): 38.5
GATCTACAGTTAGATC ((((((....)))))): 38.3
GACGCCGAAAGGCCTGTC ((((((....)))..))): 35.1
CGCGGACGACTCCGCG ((((((....)))))): 63.5
GACACCGAAAGGTATGTC ((((((....)))..))): 39.2
GCGGTGCGAAAGCAATGC ((..(((....)))..)): 59
GATCTCCACTGAGATC ((((((....)))))): 51.7
GATGTGAAAACATC (((((....))))): 49
GCACTCGAAAGAGCCTGC ((((((....)))..))): 27.8
GTTTGGGGAAACCCAAAC (((((((....))))))): 59
GAGCTCGCGAAAGCGCTC (((..(((....)))))): 41.8
GCGTAGTCACGC ((((....)))): 51.5
GGATATCGAAAGATTCC (((.(((....)))))): 39.5
TGGTAGAAATACCA (((((....))))): 36.8
GCTTTTGGAAACAAGAGC (((.(((....))).))): 41
GTTACAGGAAACTGCAAC (((.(((....))).))): 35.8
GCTACCGAAAGGTCCAGC ((((((....)))..))): 29
GCGATCACGAAAGTGCGC (((..(((....)))))): 48.7
GTTACCGAAAGGTCTAAC ((((((....)))..))): 29.2
GAATTACGAAAGTATTTC (((.(((....))).))): 35.2
